Reference source: BigSolDB 2.1

Conditions: in ethanol, 298.15 K
observationType: solubility (mole fraction)
Give your answer as a number; write no unit.

May I ask what solubility (mole fraction) has been recorded for OC[C@@H](O)[C@@H](O[C@H]1O[C@H](CO)[C@@H](O)[C@H](O)[C@H]1O)[C@H](O)[C@@H](O)CO ?
3.6e-05

---

Details: in ethanol, 323.15 K
observationType: solubility (mole fraction)
Please give only the number in your answer, with no unit.

What measured solubility (mole fraction) goes with OC[C@@H](O)[C@@H](O[C@H]1O[C@H](CO)[C@@H](O)[C@H](O)[C@H]1O)[C@H](O)[C@@H](O)CO ?
9.4e-05
